# System: P. falciparum 3D7 trophozoites
# protocol details: Metabolomic fingerprint profiling LC-MS
# Assay type: cell-based, Plasmodium falciparum
# assay context: metabolite succinate/methylmalonic acid; S2 Table Metabolomics, change in metabolite level after compound treatment
Label scheme for succinate/methylmalonic acid: range A: < -0.2; range B: ≥ -0.2 and < 0.2; range C: ≥ 0.2

compound | answer label
COc1ccc(NC(=O)C2c3ccccc3C(=O)N(CC(C)C)C2c2cccs2)cc1Cl (stereo not drawn) | range B
CNCCCNc1ccnc2cc(Cl)ccc12 | range C
Cc1ccc(-c2cc3c(nn2)-c2ccccc2C3=O)cc1 | range A
CCOC(=O)c1cnc2c(C)cc(C)cc2c1Nc1ccc(OC)c(OC)c1 | range B
CCCCCC(=O)N1c2ccccc2N=C2CC(c3ccc(OC)c(OC)c3)CC(O)=C2C1c1ccc(C(F)(F)F)cc1 (stereo not drawn) | range A
COc1ccccc1CNC(=O)CCn1c(=O)[nH]c2ccsc2c1=O | range C
COc1ccc(-c2cc3c(SCC(=O)Nc4cc(C(F)(F)F)ccc4Cl)nccn3n2)cc1 | range A
CCOC(=O)c1c(C)n(-c2ccc(Cl)cc2)c2ccc(OC(=O)C=Cc3ccccc3)cc12 | range B

**Query** Given COc1cccc(C=Cc2nc(=O)c3ccccc3o2)c1OC , name the class its succinate/methylmalonic acid places it in.
**Result** range C

**Query** And the next one, COc1ccc(C=C2SC(=N)N(c3ccccc3OC)C2=O)cc1 ?
**Result** range C

**Query** And the next one, C[n+]1c2ccccc2nc2ccc(NCCO)cc21 ?
**Result** range C

**Query** And the next one, CN1CCN(c2ccc(Nc3c4ccccc4nc4ccccc34)cc2)CC1 ?
**Result** range A

**Query** And the next one, OC(CNC1CCCCC1)Cn1c2ccccc2c2ccccc21 (stereo not drawn) ?
**Result** range B

* * *

# System: P. falciparum 3D7 trophozoites
# protocol details: Metabolomic fingerprint profiling LC-MS
# Assay type: cell-based, Plasmodium falciparum
# assay context: metabolite ribose-phosphate, S2 Table Metabolomics
In this section we review reported ribose-phosphate values for a set of compounds.

Solved cases below.
compound | target of assay | value measured
Cc1cccc(Nc2nc(N)c3ccccc3n2)c1 | P. falciparum 3D7 trophozoites | -0.08015
CC1CCN(Cc2ccc(NC(=O)c3cc4ccc5cccnc5c4[nH]3)cc2)CC1 | P. falciparum 3D7 trophozoites | -0.1444
COc1ccccc1CNC(=O)CCn1c(=O)[nH]c2ccccc2c1=O | P. falciparum 3D7 trophozoites | -0.4062
Cc1cc(NCCN2CCCCC2)c2ccc3ccccc3c2n1 | P. falciparum 3D7 trophozoites | -0.417
COc1cc(OC)c(N(C)C(=O)c2cc3c(s2)-c2ccccc2S(=O)(=O)C3)cc1Cl | P. falciparum 3D7 trophozoites | -0.6233
COc1ccc2c(=O)cc(C(Cl)(Cl)Cl)oc2c1 | P. falciparum 3D7 trophozoites | -0.0001746

**Query** So what's the measured ribose-phosphate for this one? CN(C)c1ccc(C=Cc2nc(=O)c3ccccc3o2)cc1
**Result** -0.02548

**Query** And the next one, c1ccc2cc3c(Nc4ccc(N5CCOCC5)cc4)ccnc3cc2c1 ?
**Result** -0.01288

**Query** And the next one, Cc1cc(Nc2ccc(C)c(Cl)c2)n2nc(C(F)(F)F)nc2n1 ?
**Result** 0.2644

**Query** And the next one, CCOC(=O)c1cn(CC)c2cc(N(C)CCc3ccc(OC)c(OC)c3)c(F)cc2c1=O ?
**Result** -0.2449

**Query** And the next one, CC(C)(C)c1ccc(O)c(CNC2CCCCC2)c1 ?
**Result** -0.2844

**Query** And the next one, C[n+]1c2ccccc2nc2ccc(NCCO)cc21 ?
**Result** 0.7027

**Query** And the next one, O=C(NCC(c1ccsc1)N1CCCCCC1)c1ccc(C(F)(F)F)cc1 (stereo not shown) ?
**Result** 0.03374

* * *

In this section we review reported dCMP values for a set of molecules.
# System: P. falciparum 3D7 trophozoites
# protocol details: Metabolomic fingerprint profiling LC-MS
# Format: cell-based, Plasmodium falciparum
# assay context: S2 Table Metabolomics; metabolite dCMP
Form: value (number only, do not type unit).

molecule | value measured
COc1cccc(NC(=O)[C@H](C(C)C)n2c(=O)[nH]c3ccccc3c2=O)c1 [MMV665878] | 1.538
Fc1ccc2[nH]c3c(NCCCN4CCOCC4)ncnc3c2c1 [MMV019871] | -0.1368
CC1CN(C(=O)c2sc3ccccc3c2Cl)CC(C)O1 (stereo not drawn) [MMV020492] | 0.1257
CCN(CC)CCNc1ncnc2c1[nH]c1ccc(Cl)cc12 [MMV396703] | -0.6066

**Query** So what's the measured dCMP for this one? Cc1cc(C)cc(Nc2cc(C)nc3nc(C(F)(F)F)nn23)c1 [MMV011259]
**Result** -0.2996

* * *

# Tested on: P. falciparum 3D7 trophozoites
# protocol details: Metabolomic fingerprint profiling LC-MS
# Assay type: cell-based, Plasmodium falciparum
# assay context: metabolite UDP; S2 Table Metabolomics, change in metabolite level after compound treatment
In this section we review reported UDP values for a set of molecules.
Form: value (number only, do not type unit).

Solved cases below.
molecule | value measured
Cc1cccc(Nc2nc(N)c3ccccc3n2)c1 | -0.5337
CN(C)c1ccc(C(O)(c2ccc(N(C)C)cc2)c2ccc(N(C)C)cc2)cc1 | -0.7488
COc1ccc2c(=O)cc(C(Cl)(Cl)Cl)oc2c1 | -0.477
O=C1C(O)=C([C@H]2CC[C@H](c3ccc(Cl)cc3)CC2)C(=O)c2ccccc21 [Atovaquone, reference compound] | -0.7439
Cc1cc(Nc2ccc3ccccc3c2)n2ncnc2n1 | -1.3628

**Query** API: value(readout= UDP, system= P. falciparum 3D7 trophozoites, query= COc1ccc(-c2nc3cc(Cc4ccc5[nH]c(-c6ccc(OC)cc6)nc5c4)ccc3[nH]2)cc1 )
**Result** -0.2172

**Query** And the next one, COc1ccc(C=C2SC(=N)N(c3ccccc3OC)C2=O)cc1 ?
**Result** -0.5559

**Query** And the next one, COc1ccc(C2=C(c3ccc(OC)cc3)C3(c4ccccc4)C(=O)C2(c2ccccc2)C2C(=O)N(c4ccc(C)cc4)C(=O)C23)cc1 (centres unmarked) ?
**Result** 0.07085

* * *

# Test system: P. falciparum 3D7 trophozoites
# protocol details: Metabolomic fingerprint profiling LC-MS
# Format: cell-based, Plasmodium falciparum
# assay context: metabolite Pyroglutamic acid, S2 Table Metabolomics
Threshold -0.1: Pyroglutamic acid strictly smaller gives rule met, otherwise rule not met.

molecule | answer label
CCOC(=O)c1cnc2ccc(CC)cc2c1O [MMV007116] | rule not met
Oc1ccccc1CNCC12CC3CC(CC(C3)C1)C2 [MMV020788] | rule not met
c1ccc(Cn2c(N=Nc3c(Nc4ccccc4)ccc4ccccc34)nc3ccccc32)cc1 [MMV666023] | rule not met
COc1ccc(C=C2SC(=N)N(c3ccccc3OC)C2=O)cc1 [MMV666691] | rule met

**Query** Quick check: Pyroglutamic acid of COc1ccc(-c2nc3cc(Cc4ccc5[nH]c(-c6ccc(OC)cc6)nc5c4)ccc3[nH]2)cc1 [MMV007384] under -0.1?
**Result** rule not met

**Query** And the next one, OC(CNC1CCCCC1)Cn1c2ccccc2c2ccccc21 (stereo not shown) [MMV009063] ?
**Result** rule not met

**Query** And the next one, CCOC(=O)C1=C(c2ccccc2)N=c2sc(=Cc3cc(C)n(-c4ccc(F)cc4)c3C)c(=O)n2C1c1cccc(OC)c1OC (stereo not shown) [MMV666601] ?
**Result** rule not met

**Query** And the next one, CCCCCC(=O)N1c2ccccc2N=C2CC(c3ccc(OC)c(OC)c3)CC(O)=C2C1c1ccc(C(F)(F)F)cc1 (stereo not shown) [MMV085583] ?
**Result** rule met

**Query** And the next one, COc1ccccc1CNC(=O)CCn1c(=O)[nH]c2ccsc2c1=O [MMV019066] ?
**Result** rule met

**Query** And the next one, O=C(NCC(c1ccsc1)N1CCCCCC1)c1ccc(C(F)(F)F)cc1 (stereo not shown) [MMV396672] ?
**Result** rule met

* * *

# Tested on: P. falciparum 3D7 trophozoites
# protocol details: Metabolomic fingerprint profiling LC-MS
# Format: cell-based, Plasmodium falciparum
# assay context: metabolite CDP; S2 Table Metabolomics, change in metabolite level after compound treatment
Label satisfied when CDP is at or above 0.03; otherwise label not satisfied.

Some solved entries appear below for comparison.
compound | answer label
CN(C)CCCNc1c2ccccc2nc2ccccc12 | not satisfied
COc1ccc(C2=C(c3ccc(OC)cc3)C3(c4ccccc4)C(=O)C2(c2ccccc2)C2C(=O)N(c4ccc(C)cc4)C(=O)C23)cc1 (stereo not drawn) | satisfied
CCOC(=O)c1cn(CC)c2cc(N3CCCCC3)c(F)cc2c1=O | satisfied
CCOc1cc2c(cc1OCC)C(c1cc(OC)c(O)cc1Cl)NCC2 (stereo not drawn) | satisfied
c1ccc2cc3c(Nc4ccc(N5CCOCC5)cc4)ccnc3cc2c1 | satisfied
CN(C)c1ccc(C=Cc2nc(=O)c3ccccc3o2)cc1 | not satisfied

Switching to the query record.
**Query** Evaluate CC1CN(C(=O)c2sc3ccccc3c2Cl)CC(C)O1 (stereo not drawn) : CDP at minimum 0.03?
**Result** satisfied
